Data origin, for the record: patent US20230250096A1

# Tested on: KO-52 cells
# assay details: Proliferation assay (spheroid confluence, 8 days), KO-52 control cell line
# Assay type: cell-based, human
# experimental parameters: Homo sapiens, read-out: spheroid assay_KO-52 IC50
# Experimental: The anti-proliferative effect of menin/MLL protein/protein interaction inhibitor test compounds was assessed in human leukemia cell lines. […] In order to assess the anti-proliferative effects, 200 MOLM14 cells, 200 OCI-AML3 cells or 300 KO-52 cells were seeded in 200 μl media per well in 96-well round bottom, ultra-low attachment plates (Costar, catalogue number 7007). […] Spheroid like growth was measured in real-time by live-cell imaging (IncuCyteZOOM, Essenbio, 4×objective) acquiring images at day 8. […]
measured attribute: pIC50
API: returns pIC50 as number; meaning -log10 of concentration in mol/L.

The molecule CC(=O)N1CCN(CCCC(C(C)C)N2CC[C@H](Cc3cn(-c4ccc(F)cc4C(=O)N(C)C(C)C)c4cncc(C)c34)C2)CC1 (mixture of isomers) , tested on KO-52 cells, showed pIC50 of 5.25

The molecule Cc1cncc2c1c(C[C@@H]1CCN(CC3CCC(=O)N(C)CC3)C1)cn2-c1ccc(F)cc1C(=O)N(C)C(C)C (stereo partly drawn) , tested on KO-52 cells, showed pIC50 of 5.13

The molecule CON(C)C(=O)N1CCC(CN2CCC(Cc3cn(-c4ccc(F)cc4C(=O)N(C)C(C)C)c4cncc(C)c34)CC2)CC1 , tested on KO-52 cells, showed pIC50 of 5.54

---

# measured target: menin/MLL (terbium chelate-labeled menin, FITC-MBM1 peptide) (Homo sapiens, UniProt O00255, T541A)
# Construct: Menin (a.a 1-610-6xhis tag, 2.3 mg/mL in 20 mM Hepes)
# assay details: Menin/MLL homogenous time-resolved fluorescence (HTRF) assay
# experimental parameters: 30 min incubation
Field: pIC50. Provide a value for each of the molecules that follow.
API: returns pIC50 as number; meaning -log10 of concentration in mol/L.

// recorded pIC50 for CC(=O)N1CCC(CN2CC[C@@H](Cc3cn(-c4ccc(F)cc4C(=O)N4CCC[C@@H]4C)c4cncc(C)c34)C2)CC1 [Compound 319] : 9.53

// recorded pIC50 for CNC(=O)c1cncc(N2CCC(N3CC(Cc4cn(-c5ccc(F)cc5C(=O)N(C)C(C)C)c5cncc(C)c45)C3)CC2)n1 [Compound 75] : 10.23

// recorded pIC50 for CC(=O)N1CCC(CN2CCC(Cc3cn(-c4ccc(F)cc4C(=O)N(C)C(C)C)c4cncc(C)c34)CC2)CC1 [Compound 58] : 9.87

// recorded pIC50 for Cc1cncc2c1c(CC1CN(CC3(O)CCOCC3)C1)cn2-c1ccc(F)cc1C(=O)N(C)C(C)C [Compound 307] : 10.36

// recorded pIC50 for Cc1cncc2c1c(C[C@@H]1CCN(C[C@H]3CCOC3)C1)cn2-c1ccc(F)cc1C(=O)N(C)C(C)C (single isomer, unassigned) [Compound 190a] : 10.00

// recorded pIC50 for CNC(=O)N1CCC(CN2CC[C@H](Cc3cn(-c4ccc(F)cc4C(=O)N(C)C(C)C)c4cncc(C)c34)C2)CC1 (single isomer, unassigned) [Compound 101] : 10.39

// recorded pIC50 for COCC(=O)N1CCC(CN2CCC(Cc3cn(-c4ccc(F)cc4C(=O)N(C)C(C)C)c4cncc(C)c34)C2)CC1 (single isomer, unassigned) [Compound 59] : 10.27

// recorded pIC50 for COC[C@@H](C1CCCCO1)N1CC[C@@H](Cc2cn(-c3ccc(F)cc3C(=O)N(C)C(C)C)c3cncc(C)c23)C1 (single isomer, unassigned) [Compound 165a] : 9.76

// recorded pIC50 for COC(=O)N1CCC(CN2CC[C@@H](Cc3cn(-c4ccc(F)cc4C(=O)N(C[C@H](C)O)C(C)C)c4cncc(C)c34)C2)CC1 [Compound 335] : 9.71

// recorded pIC50 for COC(=O)c1cc(F)ccc1-n1cc(C[C@@H]2CCN(CC3CCNC(=O)CC3)C2)c2c(C)cncc21 (stereo partly shown) [Compound 533] : 9.09

// recorded pIC50 for CC(=O)N1CCC(CN2CC[C@@H](Cc3cn(-c4ccc(F)cc4C(=O)N4CCC[C@H]4C)c4cncc(C)c34)C2)CC1 [Compound 315] : 10.15

// recorded pIC50 for CC(=O)N1CCC(CN2CCC[C@@H](Cc3cn(-c4ccc(F)cc4C(=O)N(C)C(C)C)c4cncc(C)c34)C2)CC1 [Compound 146] : 8.91

// recorded pIC50 for CC(=O)N1CC2C(CN3CC(Cc4cn(-c5ccc(F)cc5C(=O)N(C)C(C)C)c5cncc(C)c45)C3)C2C1 (stereo not shown) [Compound 305] : 9.84

---

# measured target: menin/MLL (terbium chelate-labeled menin, FITC-MBM1 peptide) (Homo sapiens, UniProt O00255, T541A)
# Construct: Menin (a.a 1-610-6xhis tag, 2.3 mg/mL in 20 mM Hepes)
# assay details: Menin/MLL homogenous time-resolved fluorescence (HTRF) assay
# experimental parameters: 30 min incubation
Field: pIC50. Provide a value for each of the compounds that follow.
API: returns pIC50 as number; meaning -log10 of concentration in mol/L.

// recorded pIC50 for Cc1cncc2c1c(CC1CNC(CC3CCOCC3)C1)cn2-c1ccc(F)cc1C(=O)N(C)C(C)C (single isomer, unassigned) [Compound 134d] : 9.37

// recorded pIC50 for CCC([C@H]1C[C@@H](N2C[C@H]3CN(C(C)=O)C[C@@H]3C2)C1)N1CC[C@@H](Cc2cn(-c3ccc(F)cc3C(=O)N(C)C(C)C)c3cncc(C)c23)C1 (mixture of isomers) : 10.62

// recorded pIC50 for CC(=O)N[C@@H](C)CN1CC[C@H](Cc2cn(-c3ccc(F)cc3C(=O)N(C)C(C)C)c3cncc(C)c23)C1 (single isomer, unassigned) [Compound 119b] : 9.24

---

# measured target: menin/MLL (terbium chelate-labeled menin, FITC-MBM1 peptide) (Homo sapiens, UniProt O00255, T541A)
# Construct: Menin (a.a 1-610-6xhis tag, 2.3 mg/mL in 20 mM Hepes)
# Sequence (O00255 with tags, fused parts or gaps T541A): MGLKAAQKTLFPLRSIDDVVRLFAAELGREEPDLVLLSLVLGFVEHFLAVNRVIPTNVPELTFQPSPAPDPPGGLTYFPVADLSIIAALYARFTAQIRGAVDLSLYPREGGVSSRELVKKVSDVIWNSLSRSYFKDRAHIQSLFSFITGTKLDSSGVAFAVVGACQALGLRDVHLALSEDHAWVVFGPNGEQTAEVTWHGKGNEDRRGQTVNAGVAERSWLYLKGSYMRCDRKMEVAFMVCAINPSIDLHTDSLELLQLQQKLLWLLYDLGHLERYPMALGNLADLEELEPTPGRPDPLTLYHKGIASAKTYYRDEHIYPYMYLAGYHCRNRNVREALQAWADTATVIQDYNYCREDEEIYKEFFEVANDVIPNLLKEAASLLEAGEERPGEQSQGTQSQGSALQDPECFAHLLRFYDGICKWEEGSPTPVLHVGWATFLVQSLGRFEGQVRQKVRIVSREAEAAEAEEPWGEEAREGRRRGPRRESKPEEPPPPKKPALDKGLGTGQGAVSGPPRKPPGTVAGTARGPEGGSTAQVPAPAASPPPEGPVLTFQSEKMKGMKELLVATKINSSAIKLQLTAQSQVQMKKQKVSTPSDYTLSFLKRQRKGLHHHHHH
# assay details: Menin/MLL homogenous time-resolved fluorescence (HTRF) assay
# Assay type: binding
# experimental parameters: 30 min incubation
Mark t for IC50 under 0.1 nM, f if at or over.

Is 0.1 nM strictly greater than the compound's reported IC50? compound: Cc1cncc2c1c(C[C@H]1CCN([C@H](C)C3CCOCC3)C1)cn2-c1ccc(F)cc1C(=O)N(C)C(C)C (single isomer, unassigned) [Compound 49a]
f

Is 0.1 nM strictly greater than the compound's reported IC50? compound: Cc1cncc2c1c(CC1CN(CC3CCNC(=O)CC3)C1)cn2-c1ccc(F)cc1C(=O)N(C)C(C)C (stereo not drawn)
f

Is 0.1 nM strictly greater than the compound's reported IC50? compound: CN=[S@](=O)(c1cc(F)ccc1-n1cc(CC2CN(CC3CCOCC3)C2)c2c(C)cncc21)C(C)C (single isomer, unassigned) [Compound 166a]
t

Is 0.1 nM strictly greater than the compound's reported IC50? compound: Cc1cncc2c1c(C[C@@H]1CCN(CC3CCN(C(N)=O)CC3)C1)cn2-c1ccc(F)cc1C(=O)N(C)C(C)C
t

Is 0.1 nM strictly greater than the compound's reported IC50? compound: Cc1cncc2c1c(CC1CCN(CC3CCC(=O)NC3)CC1)cn2-c1ccc(F)cc1C(=O)N(C)C(C)C (stereo not drawn)
f

Is 0.1 nM strictly greater than the compound's reported IC50? compound: Cc1cncc2c1c(CC1CN(CC3CCCOC3)C1)cn2-c1ccc(F)cc1C(=O)N(C)C(C)C (stereo not drawn)
t
